# test.details: yeast display, Sf9 membrane polyspecificity reagent, FACS + sequencing; frameworks hold sequencing errors
measurement.kind: polyreactivity (PSR sort gate)

QVQLVESGGGLVQAGGSLRLSCAASGFTFYSYAMGWYRQAPGKERELVATISSGGRTYYADSVKGRFTISRDNAKNTVYLQMNSLKPEDTAVYYCAARWRPHPFAPPGYYSWGQGTQVTVSS
high polyreactivity
QVQLVESGGGLVQAGGSLRLSCAASGSIFVYYAMGWYRQAPGKERELVAGISRTGGRTYYADSVKGRFTISRDNAKITVYLQMNSLKPEDTAVYYCAAVSYYKSYGEFDYWGQGTQVTVSS
high polyreactivity
QVHLVESGGGLVQAGGSLRLSCHASGSNFYSYGLGSYRQAPGKERELVAAITSSGGGTYYADSVKGGFTISRDNAKNTVYLQMHSLKPEDTAVYYCNADHFSDNSSTQYDYWGQGTQVTVSS
low polyreactivity
QVQLVESGGGLVQAGGSLRLSCAASGSIFDDYAMGWYRQAAGKERELVAAITWNGGSTYADSVKGRFTISRDYAKNTVYLQMHSLKPEDTAVYYCNRGGAFNTRNEITRYGYWGQGTQVTVSS
low polyreactivity
QVQLVESGGGLVQAGGSLRLSCAASGIIFPPYTMGWYRQAPGKERELVAAINTRGSRTYYADSVKGRFTISRDNAKNTVYLQMNSLKPEDTAVYYCAADVWWSTTYDYWGQGTQVTVSS
high polyreactivity
QVQRVESGGGLVQAGGSLRLSCAASGRTFYPNAMGWSRQAPGKERELVADITYSGASTYYADSVKGRFTISRDNAKNTVYLQMNSMKPEDTAVYYCAKVYGQMVSGGYVTRYDFWGQGTQVTVSS
low polyreactivity
QVQLVESGGGLVPAGGSLRLSWAASGRIFPRNTMGWYRQAPGKERELVAAISVSGGSTYYADSVKGRFTISRDNAKNTVYLQMNSLKPEDTAVYYSAARSARLEYYYWGQGTQVTVSS
high polyreactivity
QVQLVESGGGLVQAGGSLRLSCAASGSIIYHYAWGWYRQAPGQERELVDAITRCGGSTYYADSVKGRFTISRDNAKNTVYLQMHSLKPEDTAVYYCAREAGRYAYKYYWWQRTDYDYGGQGTQVTVSS
low polyreactivity

Output measured polyreactivity (PSR sort gate) for this item: `QVQLEESAGGLVQAGGSLRLICADSARILRQYARGWYRQAPGKERELVAAITSSGGSTYYADSVKGRFTISRDNEKNTVYLQMNSMKPEDTAVYYCNARLRGAKYDYWGQGTQVSVSS` high polyreactivity

Output measured polyreactivity (PSR sort gate) for this item: `QVQLVESGGGLVQAGGILRLSCAASGYTFYFYAMGWYRQAPGKERELVAAITGGGTTSYADSVKGRFTISRDNAKNTVYLQMNSLKPEDTAVYYCNVLFADKSDYWGQGTQVTVSS` low polyreactivity

Output measured polyreactivity (PSR sort gate) for this item: `QVQLVESGGGLVQAGGSLRLSCAASGSIFLRNAMGWYRQAPGKERELVAAITSNGGRTYYADSVKGRFTISRDNAKNTVYLQMNSLKPEDTAVYYCARVTRLGGGDYDYWGQGTQVTVSS` high polyreactivity

====

# test.details: yeast display, Sf9 membrane polyspecificity reagent, FACS + sequencing; frameworks hold sequencing errors
measurement.kind: polyreactivity (PSR sort gate)

In the examples that follow, each entry is paired with its recorded polyreactivity (PSR sort gate).
QVQLVESGGGLVQAGGSLRLSCAASARTFPWYAMGLYRQAPGKERELVAAISWTGGSTYYADSVKGRFTISRDNAKHTVYLQMNSLKPEDTAVYYCAASPWYLKYEYWGQGTQVTVSS
low polyreactivity
QVQLVESGGGLVQAGGSLRLSCAASGFILSNYAMGWYRQAPGKERELVAAIRWSGGSTYYADSVKGRFTISRDYAKNTVYLQMNSLKPEDTAVYYCNKVRPFSWYGLDYWGQGTQVTVSS
high polyreactivity
QVQLVESGGGLVQAGGSLRLSCAASVSTIGYYAMGWYRQAPGKEWELVAAITWSGDSTYADSVKGRFTISRDNAKNTVYLQMNRLKPEDTAVYYCARRGFLGHWPRPSYDYWGQGTQVTVSS
low polyreactivity
QVQHVESGGGLVQAGGSRRLTCAASGYTFYKYAMGWYRQAPGKERELVAAISSSGGSTYYADSVKGRFTISRDNAKNTGYLHMNSLKPVDTAVYYCAAFVYSNDYDYWGQGTQVTVSS
high polyreactivity
QVQLVESGGGLVQAGGSLRLSCAASGSTFRLNARGWYRQAPGKERELVASIRWSVGITYYADSVKGRFTISRDNAKNTVYLQMNSLKPEDTAVYYCATRDTTWRYYYWGQGTQVTVSS
high polyreactivity
QVQLVESGGGLVQAGGSLRLSCAASGSIFYTNAMGWYRPAPGKERELVAAIRWSGGRTYYADSVKGRFTISRDNAKNTVYLQMNSLKPEDTAVYYCNVVVRYPSAYDYWGQGTQVTVSS
high polyreactivity
QVQLVESGGGLVQAGGSLRLTCAASGRTFYINAMGWYRQAPGKERELVAAISSGGSTNYADSVKGRFTISRDNAKNTVSLQMNSLKPEDTAVYYCNARLRSFTLSDAEYEYWGQGTQVTVSS
low polyreactivity
QVQLVESGGGLVQGGGSLRLSCAASGSIFTRNAMGWYRQAPGKEREFVAAISSSGVSTYYADSVKGRFTISRDNAKNTVYLQMNSLKPEDTALYYCAARWGTKSGRYDYWGQGTQVTVSS
high polyreactivity
QVHLVESGGGLVQAGGILRLSWASSGFIFPRYAMGSYRQAPGKERELVAGITSRGTGTYYADSVKGRFTISRDNAKNTVYLQMNSLKQEDTAVYYCARLSTKPLPYDDWGQGTQVTVSS
high polyreactivity
QVQLVESGGGLVQSGGSLRLSCAASGNTFTFYAMGWYRQAPGKERELVAVISQIADGCTYYADSVKGRFTISRDNSKNSVYLQMNSLKPEDTAVYYCIAQTWDEYWGQGTQVTVSS
low polyreactivity

Output measured polyreactivity (PSR sort gate) for this item: `QVQLVESGGGLVQAGGSLRLSCAASGSIFTPYAMVWYRQAPGQERELVAAITSGGSTYYADSVKGRFTISRDNAKNTVYLQMNSLKPEDTAVYYCARRVWNYLRRSWYDYWGQGTQVTVSS` high polyreactivity

Output measured polyreactivity (PSR sort gate) for this item: `QVQLVESGGGLVQAGGSLRLSCADSGLILYTYAMGWYRQAPGKERELVAAIDWGDGDTYYADSVKGRFTISRDNAKNTVYLQMNSLKPEDTAVYYCAADLVGYSGYYFDEEYYWGQGTQVTVSS` high polyreactivity

Output measured polyreactivity (PSR sort gate) for this item: `QVQLVESGGGLVQAGGSLRLSCAASGSTSDINAMGWYRQAPGKERELVAAITSRSGSTYYADSVKGRFTISRDNAKNTVYLQMNSLKPEDTAVYYCAAEYVRFYWYTSDYWGQGTQVTVSS` low polyreactivity

Output measured polyreactivity (PSR sort gate) for this item: `QVQLVESRGRLVQAGGSLRLSCAASGSIFGTYAMGWYRHAPGKERELVAAISWSDGSTYYADSVKGRFTISRDNAKYTVYLQMNSLKPEATEVYFCSKVYRSIGANVSRYGLSYYYWGQGTQVTVSS` low polyreactivity

Output measured polyreactivity (PSR sort gate) for this item: `QVQLVESGGGLVQAGGSLRLSCAASGGIFRRYAMVWYRQAPGKERELVAGISYSGGSTYYADSVKGRFTISRDNAKNTVYLQMNSLKPEDTAVDYCATVGYVWYRSVNVWSPMDYWGQGTQVTVSS` high polyreactivity

Output measured polyreactivity (PSR sort gate) for this item: `QVQLVESGGGLVQAGGSLRLSCAASGSTIRYYAMGWYRQAPGKERELVAAITSSGTSTYYADSVKGRFTISRDNAKNTVDLQMNRLKPEDTAVYYCAARPVYKWVSSRYDYWGQGTQVTVSS` low polyreactivity

====

# test.details: yeast display, Sf9 membrane polyspecificity reagent, FACS + sequencing; frameworks hold sequencing errors
measurement.kind: polyreactivity (PSR sort gate)

QVQLVESGGGLVQAGGSLRLSCAASGRTFRRYTMGWYTQAPGKVRELVAAITTSGGSTYYADSVKGRFTISRDNAKHTVYLQMNSLKPEDTAVYYCAATRRYSGDFWGQGTQVTVSS
high polyreactivity
QVQLVESGGGLVQAGGSLRLSCAASGIIFYYYAMGWYRQAPGKERELVAAISWSGGSTYYADSVKGRFTISRDNAKNTVYLQMNSLKPEDTAVYYCAAAFSPGWWSRHTYDYDYWGQGTQVTVSS
high polyreactivity
QVQLVESGGGLVQAGGSLRLSCAASGIIFGWYAMGWYRQAPGKERELVAAISYSGGSTYYADSVKGRFTISRDNAKNTVYLQMNSLKPEDTAVYYCAVQRYWGQGTQVTVSS
high polyreactivity
QVQLVESGGVLVQAGGSLRLSCAASGSISSVYAMGWYRQAPGKDRELVAGITSGGSTNYADSVKGRFTISRDNAKITVYLQMNSLKPEDTAVYYCAAVYKGAGTHFDVFVKEFDYWRQGTQVTVSS
low polyreactivity
QVQLVESGGGLVQAGGSLRLSCAASGFIFSRNAMGWYRQAPGKVRELGAAISRVGSTYYADSVKGRFTISRDNAKNTVYLQMYSLKREDTAVYYCARAWGNGGKSIFDYWGQGTQVTVSS
high polyreactivity
QVQLVESGGGLVQAGGRLRLSCAASGRTFNYYAMGWYRQAPGKERELVATISYNGASTYYADSVKGRFTISRDNAKNTVYLQMNSLKPEDTAVYYCAAGYLWRGRLGNWGQGTQVTVSS
high polyreactivity
QVQLVESGGGLVQAGGSLRLSCAASGLTFGYYAMGWYRQAPGKERELVAAISRGSSTYYADSVKGRFTISRDNAKNTVYLQMNSLKPEDTAVYYCNALFSYGYWRVRYIVTQYDYWGQGTQVTVSS
high polyreactivity
QVQLVESGGGLVKAGGSLRLSCAASGFTFAYYAMGWYRQAPGKERELVAAISGSGGSTYYADSVKGRFTISRDNAKNTVYLQMNSLKPEDTAVYYCAAARRSTWSYSYYWGQGTQVTVSS
high polyreactivity

Output measured polyreactivity (PSR sort gate) for this item: `QVQLVESGGGLVQAGGSLRLSCAASGSIFRVYAMGWYRQAPGKERELVAAITNGGNTNYADSVKGRFTISRDNAKNTVYLQMNSLKPEDTAVYYCAADPLRTPGARHTPYKGTYDYWGQGTQVTVSS` high polyreactivity

Output measured polyreactivity (PSR sort gate) for this item: `QVQLVESGGGLVQAGGSLRLSCAASGRTFFYNARGWYRQEPGKERELVAAIDWSGDSTYYADSVKGRFTISRDNAKNTVYLQMNSLKPEDTAVYYCAARRKNRRDYDYYYWGQGTQVTVSS` high polyreactivity

Output measured polyreactivity (PSR sort gate) for this item: `QVQLVESGGGLVQAGGSLRLSCADSGRTFQYYAMGWSRQSPAKERELVAAITSGGSTYYADSVKGRFTISRDNAKNTVYLQMNSLKTEDTAVYYCAADFLYYSSGGKMDYWGQGTQVTVSS` low polyreactivity

Output measured polyreactivity (PSR sort gate) for this item: `QVQLVDSGGGLVQAGGSLRLSCAASGRIFYAYAMGGYRQAPGKERELVARISASGGNTYYADSVKGRFTISRDNAKNSVYLQMNSLKPEDTAVYYCNKLFWYGRQYDYWGQGTQVTVSS` high polyreactivity

Output measured polyreactivity (PSR sort gate) for this item: `QVQLVESGGGLVQAGGSLRLSCAASGSTFAFYAMGWYRQAPGKEREFVAAITWDGGTTYYADSVKGRFTISLDNAKNTVYLQMNSLKPEDTAVYYCATQYLSYLYAGRYDYWGQGTQVTVSS` low polyreactivity
